Data origin: the DeepSol protein solubility set

test: soluble on expression in E. coli; label from the status in PepcDB or PDB records
quantity kind: soluble on expression in E. coli

INSERT INTO measurements (chain_sequence, quantity_kind, assay_result) VALUES
  ('MGSDKIHHHHHHMDGSLNGETWRFIVRNIRIGVVEDDPASCQLVLDYLNRYQSETGEQFTVSVFDDGARIVEKYAPVYDILLLDIEMKEIDGMAAARRIRERDDNVVIIFITAAPQYAISGYEVRALSYLLKPLPWFAFSQELKKSIDMVRRNGDDSMLIETGKGQMRMNLTDILYLESIRHTIVIHTLDGKYSINGTLKDMEAKLADRHFFRSNSCYLVNLKHVTGVADQDCIMSDDERLRVSRPRKKAFLAALADYMGGGR', 'soluble on expression in E. coli', 'not soluble'),
  ('MQHSLRSDGAGFYQLACCEYSLSMRKIALSGGFWGGVCRMAMKSIFFMFHQGNRRLTLTAVQGILLRFSLF', 'soluble on expression in E. coli', 'not soluble');
